Experiment: Half life in monkey liver microsomes
Assay type: ADME, Macaca mulatta
Conditions: rhesus monkey

MOLECULE	half-life
COc1ccc2c(c1)[C@@H]1C[C@]1(C(=O)N1CC34CCC3(CN(C(=O)N(C)C)C4)C1)Cn1c-2c(C2CCCCC2)c2ccc(C(=O)NS(=O)(=O)C(C)C)cc21 (stereo partly specified)	24 min

###

Listed compounds paired with reported IC50
Test: Inhibition of HCV genotype 1b wild type NS5B polymerase using biotinylated oligo dT12 primer as substrate after 4 hrs in presence of [3H]UTP
Parameters: species or system Hepatitis C virus subtype 1b

COMPOUND	IC50 / nM
COc1ccc2c(c1)[C@@H]1C[C@]1(C(=O)N1CC34CN(C)CC3(CN(C)C4)C1)Cn1c-2c(C2CCCCC2)c2ccc(C(=O)NS(=O)(=O)C(C)C)cc21 (stereo partly specified)	5
COc1ccc2c(c1)[C@@H]1C[C@]1(C(=O)N1CC34COCC3(CN(C(C)=O)C4)C1)Cn1c-2c(C2CCCCC2)c2ccc(C(=O)NS(=O)(=O)C(C)C)cc21 (stereo partly specified)	3
COC(=O)N1CC23CCC2(C1)CN(C(=O)[C@]12C[C@H]1c1cc(OC)ccc1-c1c(C4CCCCC4)c4ccc(C(=O)NS(=O)(=O)C(C)C)cc4n1C2)C3 (stereo partly specified)	25
COc1ccc2c(c1)[C@@H]1C[C@]1(C(=O)N1CC34CCC3(CN(C(=O)N3CCOCC3)C4)C1)Cn1c-2c(C2CCCCC2)c2ccc(C(=O)NS(=O)(=O)C(C)C)cc21 (stereo partly specified)	5
CNC(=O)N1CC23COCC2(C1)CN(C(=O)[C@]12C[C@H]1c1cc(OC)ccc1-c1c(C4CCCCC4)c4ccc(C(=O)NS(=O)(=O)N(C)C)cc4n1C2)C3 (stereo partly specified)	2
COc1ccc2c(c1)[C@@H]1C[C@]1(C(=O)N1CC34CCC3(CN(C(=O)N3CCCC3)C4)C1)Cn1c-2c(C2CCCCC2)c2ccc(C(=O)NS(=O)(=O)N(C)C)cc21 (stereo partly specified)	2
COc1ccc2c(c1)[C@@H]1C[C@]1(C(=O)N1CC34COCC3(CN(CC(F)(F)F)C4)C1)Cn1c-2c(C2CCCCC2)c2ccc(C(=O)NS(=O)(=O)N(C)C)cc21 (stereo partly specified)	2
COc1ccc2c(c1)[C@@H]1C[C@]1(C(=O)N1CC34CCC3(CN(CC(F)(F)F)C4)C1)Cn1c-2c(C2CCCCC2)c2ccc(C(=O)NS(=O)(=O)C(C)C)cc21 (stereo partly specified)	7
COc1ccc2c(c1)[C@@H]1C[C@]1(C(=O)N1CC34CCC3(CN(C(=O)N(C(C)C)C(C)C)C4)C1)Cn1c-2c(C2CCCCC2)c2ccc(C(=O)NS(=O)(=O)C(C)C)cc21 (stereo partly specified)	4
COc1ccc2c(c1)[C@@H]1C[C@]1(C(=O)N1CC34CCC3(CN(C(C)=O)C4)C1)Cn1c-2c(C2CCCCC2)c2ccc(C(=O)NS(=O)(=O)C(C)C)cc21 (stereo partly specified)	2
CNC(=O)N1CC23CCC2(C1)CN(C(=O)[C@]12C[C@H]1c1cc(OC)ccc1-c1c(C4CCCCC4)c4ccc(C(=O)NS(=O)(=O)C(C)C)cc4n1C2)C3 (stereo partly specified)	2

Data origin, for the record: ChEMBL document CHEMBL3232986
